Data provenance is ChEMBL document CHEMBL2203146.

# Test system: Mus musculus
# Protocol description: Neurotoxicity in albino CF1 mouse assessed as minimal motor impairment at 100 mg/kg, ip after 0.5 hr by rotorod test
# Type: toxicity, organism-based
# Design: dose 100 mg/kg, route intraperitoneal
# Condition parameters: in vivo
Readout kind: Activity

In [3]: df
Out[3]:
                                   compound   measured_on  data_value
0  COc1cccc(N2CCN(C3CCOC3=O)CC2)c1 (racemic)  Mus musculus   Non-toxic
1     O=C1OCCC1N1CCN(c2ccccc2)CC1 (racemic)  Mus musculus       Toxic
2           Cl.O=C1OCCC1NC1CCCCC1 (racemic)  Mus musculus   Non-toxic
3   O=C1CC(N2CCN(c3ccccc3)CC2)CO1 (racemic)  Mus musculus       Toxic
4  COc1ccc(N2CCN(C3CCOC3=O)CC2)cc1 (racemic)  Mus musculus   Non-toxic
5            Cl.O=C1OCCC1N1CCOCC1 (racemic)  Mus musculus   Non-toxic

====

# System: Mus musculus
# Protocol description: Neurotoxicity in albino CF1 mouse assessed as minimal motor impairment at 300 mg/kg, ip after 0.5 hr by rotorod test
# Format: toxicity, organism-based
# Design: dose 300 mg/kg, route intraperitoneal
# Condition parameters: in vivo
Readout kind: Activity

>>> print(df.to_string())
                                   compound   measured_on  data_value
0     O=C1OCCC1NCc1ccccc1C(F)(F)F (racemic)  Mus musculus   Non-toxic
1      COc1ccc(CNC2CCOC2=O)cc1.Cl (racemic)  Mus musculus   Non-toxic
2    O=C1OCCC1N1CCC(Cc2ccccc2)CC1 (racemic)  Mus musculus       Toxic
3  COc1ccc(N2CCN(C3CCOC3=O)CC2)cc1 (racemic)  Mus musculus   Non-toxic
4  CC1CC(NCc2ccccc2)C(=O)O1.Cl (mixture of isomers)  Mus musculus   Non-toxic
5  COc1cccc(N2CCN(C3CCOC3=O)CC2)c1 (racemic)  Mus musculus   Non-toxic
